- Tested on: SK-BR-3
- assay text: drug sensitivity score (DSS), CellTiter-Blue viability (DSS (AUC-based score)); higher = stronger viability inhibition; extreme values may be limits of the assay
- assay conditions: incubation time: 72 h
quantity measured: drug sensitivity score
Returns: the value as a bare number; no unit string appended.

Memo: "CO[C@@H]1[C@H](N(C)C(=O)c2ccccc2)C[C@H]2O[C@]1(C)n1c3ccccc3c3c4c(c5c6ccccc6n2c5c31)C(=O)NC4" , reported drug sensitivity score: 6.46

Query "CNC(=O)c1ccccc1Sc1ccc2c(/C=C/c3ccccn3)n[nH]c2c1" yields drug sensitivity score of 0

Sure, the documented drug sensitivity score for "COc1ccc(S(=O)(=O)Nc2cccnc2Nc2ccc(O)cc2)cc1" is 18.5

====

- Test system: CAL-51
- assay text: normalised response (% of control), CellTiter-Glo; higher = more viable cells (100 = DMSO, 0 = benzethonium chloride kill control)
- assay conditions: incubation time: 72 h
Can you tell me normalised response for the items I'm about to list?
Reply numerically in %, unit not repeated.

Record summary for CCNC(=O)CCC/C=C\C[C@@H]1[C@@H](/C=C/[C@@H](O)CCc2ccccc2)[C@H](O)C[C@@H]1O [Bimatoprost] (55 nM) : reported normalised response = 90.4

For record CCn1c(C(=O)N(C2CC2)C2CC2)cc2c3c(ncn3C)c(Nc3cc(C)n(C)n3)nc21 (100 nM) the listed normalised response is 87.7

The compound identified as CO[C@@H]1[C@H](N(C)C(=O)c2ccccc2)C[C@H]2O[C@]1(C)n1c3ccccc3c3c4c(c5c6ccccc6n2c5c31)C(=O)NC4 [Midostaurin] (100 nM) registered its normalised response at 89.7

====

- System: DU-4475
- assay text: normalised response (% of control), CellTiter-Glo; higher = more viable cells (100 = DMSO, 0 = benzethonium chloride kill control)
- assay conditions: incubation time: 72 h
quantity measured: normalised response (%)
Write the number in % without appending the unit.

Known value: DU-4475 normalised response of the compound O=C(O)CNC(=O)c1c(O)c2ccccc2n(Cc2ccccc2)c1=O [IOX-2] (5 nM) equals 97.3

Entry CN[C@@H](C)C(=O)N[C@H]1CN(C(=O)CC(C)C)CC[C@H]2CC[C@@H](C(=O)NC(c3ccccc3)c3ccccc3)N2C1=O [AT-406] (1 nM) , tested on DU-4475, has a reported normalised response of 98.2

Readout normalised response for CC(=O)[C@]1(O)Cc2c(O)c3c(c(O)c2[C@@H](O[C@H]2C[C@H](N)[C@H](O)[C@H](C)O2)C1)C(=O)c1ccccc1C3=O [Idarubicin] (0.1 nM) , test system DU-4475, was 103

For the compound Cc1cn(-c2cc(NC(=O)c3ccc(C)c(Nc4nccc(-c5cccnc5)n4)c3)cc(C(F)(F)F)c2)cn1 [Nilotinib] (1 nM) , the measured normalised response on DU-4475 was 105

====

- Test system: CAL-120
- assay text: normalised response (% of control), CellTox Green; higher = less cell death (100 = DMSO, 0 = benzethonium chloride kill control)
- assay conditions: incubation time: 72 h
Can you tell me normalised response for the items I'm about to list?
Give your result in % as a bare value.

normalised response measured on CCNC(=O)c1noc(-c2cc(C(C)C)c(O)cc2O)c1-c1ccc(CN2CCOCC2)cc1 [NVP-AUY922] (100 nM) = 90.3

Entry CC1(C)CCC(c2ccc(Cl)cc2)=C(CN2CCN(c3ccc(C(=O)NS(=O)(=O)c4ccc(N[C@H](CCN5CCOCC5)CSc5ccccc5)c(S(=O)(=O)C(F)(F)F)c4)cc3)CC2)C1 [Navitoclax] (100 nM) , normalised response reported as 92.1

Recorded normalised response (compound CNC(=O)c1ccccc1Sc1ccc2c(/C=C/c3ccccn3)n[nH]c2c1 [Axitinib] (10000 nM) ): 92.5
